The values you see were collected from patent US12358899B2.

The reader will find IC50 measurements below, all made with CYP 2C9 (Homo sapiens, UniProt P11712).
Sequence (P11712 whole entry): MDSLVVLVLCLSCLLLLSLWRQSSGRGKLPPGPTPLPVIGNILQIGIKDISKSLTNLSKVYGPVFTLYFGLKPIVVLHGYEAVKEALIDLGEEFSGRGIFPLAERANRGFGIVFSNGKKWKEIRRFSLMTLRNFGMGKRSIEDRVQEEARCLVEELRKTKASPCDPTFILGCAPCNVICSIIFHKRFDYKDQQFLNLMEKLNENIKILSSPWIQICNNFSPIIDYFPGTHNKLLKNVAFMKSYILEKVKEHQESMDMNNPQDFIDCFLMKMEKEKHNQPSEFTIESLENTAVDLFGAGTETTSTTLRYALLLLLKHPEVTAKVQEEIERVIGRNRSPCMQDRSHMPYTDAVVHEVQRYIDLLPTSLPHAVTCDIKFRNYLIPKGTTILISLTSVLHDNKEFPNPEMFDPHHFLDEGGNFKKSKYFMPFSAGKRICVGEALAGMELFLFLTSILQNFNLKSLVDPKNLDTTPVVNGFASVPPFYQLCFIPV
# output: bare number, implied unit µM

Would you please look over these solved cases?
# COMPOUND, UNITS_OF_MEASURE, QUANTITATIVE_RESULT
measured = [
    ("[2H]c1c(Cl)c(Oc2cc(C(C([2H])([2H])[2H])C([2H])([2H])[2H])c(=O)[nH]n2)c(Cl)c([2H])c1-n1nc(C#N)c(=O)[nH]c1=O [Example 30]", "µM", 22.1),
    ("[2H]C([2H])([2H])C(c1cc(Oc2c(Cl)cc(-n3nc(C#N)c(=O)[nH]c3=O)cc2Cl)n[nH]c1=O)C([2H])([2H])[2H] [Example 7]", "µM", 30.7),
]

Now consider the entry below.
Q: Look up IC50 with CYP 2C9 (Homo sapiens, UniProt P11712) for this compound: CC(C)c1cc(Oc2c(Cl)cc(-n3nc(C#N)c(=O)[nH]c3=O)cc2Cl)n[nH]c1=O [MGL-3196, reference compound]
A: 18.8
